These data points were gathered from PubChem BioAssay (NCI).

Tested on: NCI-H23 lung
Test: NCI tumour cell line growth inhibition, 48 h
Exercise: for every item that follows, state its recorded TGI.

Query: Item: Cc1nc2ccccc2n1Cc1ccc(NC(=S)Nc2ccccc2)cc1 Test system: NCI-H23 lung Read-out: TGI Value: ?
Reply: > 100 µM

Query: What measured TGI is associated with Cc1ccc(-c2cc(C(Cl)Cl)on2)cc1 on NCI-H23 lung?
Reply: > 100 µM

Query: Quick check: TGI on NCI-H23 lung, item CC(=O)Oc1ccc2c(c1)O/C(=C\c1ccc(O)cc1)C2=O ?
Reply: > 100 µM

Query: Write down the reported TGI of COc1ccc(-c2nn3ncccc3c2-c2ccnc(Nc3cccc(C(F)(F)F)c3)n2)cc1 , test system: NCI-H23 lung.
Reply: > 25 µM

Query: State its TGI on NCI-H23 lung: C=CCN(c1cc(OC)c2[nH]c(C(=O)O)c(C)c2c1[N+](=O)[O-])S(C)(=O)=O
Reply: > 100 µM

Query: Hello, I am looking for reported TGI with NCI-H23 lung for Cc1nc2cc(Nc3nc(Nc4ccc(F)cc4)nc(-c4ccc(Cl)cc4)n3)ccc2n1Cc1ccccc1 . Could you help?
Reply: > 100 µM

###

Tested on: HCT-15 colon
Assay: NCI tumour cell line growth inhibition, 48 h
Record form. Attribute: TGI. Fill in for each entry.

Query: Reported TGI for HCT-15 colon, given CC1CCc2sc3[nH]c(=S)n(C)c(=O)c3c2C1 (stereo not drawn) ?
Reply: > 100 µM

Query: Entry O=C1[C@H]2ON(c3ccccc3)C(c3cccc([N+](=O)[O-])c3)[C@H]2C(=O)N1c1ccc(Cc2ccc(N3C(=O)[C@@H]4ON(c5ccccc5)C(c5cccc([N+](=O)[O-])c5)[C@@H]4C3=O)cc2)cc1 (stereo partly drawn) , system HCT-15 colon: what TGI was measured?
Reply: > 100 µM

Query: Test system HCT-15 colon; read-out TGI; what value for Cc1ccc(S(=O)(=O)N2CCc3cc(O)c([N+](=O)[O-])cc32)cc1 ?
Reply: > 100 µM

###

System: SR leukemia
Experiment: NCI tumour cell line growth inhibition, 48 h
property.name: GI50

Query: Form field: reported GI50 of COc1ccc(-c2nc(/C=N/Nc3cc(C)nc4ccc(Br)cc34)c(C)o2)cc1
Reply: 315 nM

Query: Field request: GI50 | item: COc1cc(/C=C2\C(=O)Nc3ccc(Br)cc32)cc(OC)c1OC
Reply: 304 nM

Query: Which GI50 is reported for this compound? O=c1c2ccccc2c(=O)c2c1sc1c(=O)c3ccc(O)cc3c(=O)c12
Reply: 1080 nM

###

Tested on: NCI-H460 lung
Assay: NCI tumour cell line growth inhibition, 48 h; in the data active = GI50 below about 0.43 µM; inactive = the rest
The categories you may choose from are yes (1) for active, no (0) for inactive

Query: Returns: the outcome recorded for O=c1ncccn1C1OC(CO)C(O)C1F (stereo not given) in this assay.
Reply: no (0)

Query: What classification did COc1cc(/C=C2\C(=O)Nc3ccc(Br)cc32)cc(OC)c1OC end up with in this test?
Reply: no (0)

Query: Fill in: this test's call for CN1CCN(CCCOc2ccc3ncnc(Nc4ccc(Oc5cccc(F)c5)c(Cl)c4)c3c2)CC1 is ___
Reply: no (0)

Query: What is the recorded call for this compound in the test? O=C1c2cc3c(cc2-c2c1c1cc(F)c(F)cc1c(=O)n2C[C@H](O)CO)OCO3
Reply: yes (1)

Query: Which outcome was entered for the compound CCn1c(-c2nonc2N)nc2c(C#CC(C)(C)O)ncc(OC[C@@H]3CCCN3)c21 in this test?
Reply: no (0)

###

Test system: NCI-H23 lung
Assay: NCI tumour cell line growth inhibition, 48 h
Field: TGI. Provide a value for each of the compounds that follow.

Query: Query (compound): CC12CCC(=O)[C@@]1(C)CCCC2=O (stereo partly drawn) ; field requested: TGI
Reply: > 100 µM

Query: What does the record list as TGI for Cc1ccc(N2C(=O)/C(=C3\Sc4c(nc(C)n(C)c4=O)N3c3ccccc3)SC2=S)cc1 ?
Reply: > 100 µM

Query: For O=c1ncccn1C1OC(CO)C(O)C1F (stereo not drawn) , what is its reported TGI?
Reply: > 100 µM

###

Test system: HOP-92 NSCLC
Test: NCI tumour cell line growth inhibition, 48 h
Would you mind telling me the reported TGI of each entry?

Query: Please provide the recorded TGI for C[C@@H](CCO)OC1OC(COC(=O)C(C)(C)C)C(OC(=O)C(C)(C)C)C(OC(=O)C(C)(C)C)C1OC(=O)C(C)(C)C (stereo not given in full) , tested on HOP-92 NSCLC.
Reply: > 100 µM

Query: State its TGI on HOP-92 NSCLC: COc1ccc(-c2conc2-c2ccccc2)cc1
Reply: > 76.4 µM

Query: So what TGI did N#Cc1ccnc(C(=O)N2CCCC2C(=O)O)c1 (stereo not given) get with HOP-92 NSCLC?
Reply: > 100 µM

Query: Enter reported TGI observed with HOP-92 NSCLC for O=c1/c(=C/c2ccc3c(c2)OCO3)sc2nnc(Cc3ccccc3)n12
Reply: > 100 µM

Query: GET /values?readout=TGI&system=HOP-92 NSCLC&item= Cc1nnc(N=Nc2c(O)[nH]c3ccccc23)[nH]c1=O
Reply: > 100 µM

Query: Lab note: need TGI with HOP-92 NSCLC for entry Nc1ccc2c(SCC(=O)Nc3ccccc3-c3ccccc3NC(=O)CSc3c4ccccc4nc4cc(N)ccc34)c3ccccc3nc2c1 , please look it up.
Reply: 79.9 µM

Query: Requested read-out TGI, target or system HOP-92 NSCLC, entry CC(C)(C)C#CI1OC(=O)c2ccccc21
Reply: 5.78 µM

Query: I'm curious: which TGI was measured for Nn1nnc2ccccc21 tested on HOP-92 NSCLC?
Reply: > 100 µM

Query: I'm curious: which TGI was measured for CCCC/C=C1\CCC(CN2CCCC2)C1=O (stereo not given) tested on HOP-92 NSCLC?
Reply: 31.1 µM

Query: Provide the documented TGI with HOP-92 NSCLC as the system for CC1=CC(O)CC(C)(C)C1/C=C/C(C)=C/C=C/C(C)=C/C=C/C=C(C)/C=C/C=C(C)/C=C/C1=C(C)CC(O)CC1(C)C (stereo not given)
Reply: 41 µM

Query: Param readout = TGI; param system = HOP-92 NSCLC; param query = COC12C=C/C(=C(/C(=O)OCc3csc(SC)n3)C(=O)CCCCCCCCC3(OC)C=C/C(=C(/C(=O)OCc4cnc(SC)s4)C(=O)CCCCCCCC1)O3)O2 (stereo not given) ; response: value
Reply: 32.3 µM

Query: Identify the measured TGI of COC(=O)Cc1cc(=O)oc2c1C(=O)CCC2 for HOP-92 NSCLC.
Reply: > 100 µM

Query: What TGI appears in the records for this compound with HOP-92 NSCLC? COc1cccc(C2CC(=O)Nc3cc4c(cc32)CCC4)c1OC (stereo not given)
Reply: 7.83 µM

Query: Please tell me: TGI of CCC1(Cl)C(=O)NC(=O)N(C2CC(O)C(CO)O2)C1N=[N+]=[N-] (stereo not given) , system HOP-92 NSCLC?
Reply: > 100 µM

Query: Enter reported TGI observed with HOP-92 NSCLC for COc1ccc(-c2nn(-c3cccc(Cl)c3)cc2-c2cc(-c3cccs3)no2)cc1
Reply: 8.13 µM

###

Tested on: OVCAR-5 ovarian
Assay: NCI tumour cell line growth inhibition, 48 h
Quick rule for you: TGI at 20 µM or higher means 1, lower means -1.

Query: Hello, I need to know if C=C[C@@]1(C)CC(=O)[C@]2(O)[C@@]3(C)[C@@H](O)CCC(C)(C)[C@@H]3[C@H](O)[C@@H](OC(C)=O)[C@@]2(C)O1 has measured TGI not below 20 µM. Thanks!
Reply: 1

Query: Reported TGI reaches at least 20 µM for O=c1c2ccccc2c(=O)c2c1sc1c(=O)c3ccc(O)cc3c(=O)c12 ?
Reply: -1

Query: Answer whether TGI of CCCCCc1cc(CCCC)sc1-c1ccco1 is greater than or equal to 20 µM.
Reply: 1

Query: Check this compound for TGI at or above 20 µM: CC1=CC(O)CC(C)(C)C1/C=C/C(C)=C/C=C/C(C)=C/C=C/C=C(C)/C=C/C=C(C)/C=C/C1=C(C)CC(O)CC1(C)C (centres undefined)
Reply: 1

Query: Could you verify whether the entry NC(=O)c1c(NC(=O)c2cccc(C(F)(F)F)c2)sc2c1CCC(=O)C2 shows TGI of no less than 20 µM?
Reply: -1

Query: Evaluate COC(=O)C1=C(C(=O)OC)C(C(=O)OC)C(C(=O)OC)C(C(=O)OC)(C(=O)OC)C(C(=O)OC)=C1C(=O)OC (centres undefined) : TGI at minimum 20 µM?
Reply: 1

Query: Say whether c1cc2ccc1C1NCCCN1CCN1CCCNC1c1ccc(cc1)C1NCCCN1CCN1CCCNC21 (centres undefined) shows TGI of 20 µM or more.
Reply: 1

Query: Hi team, for O=C(NOC(=O)c1ccc([N+](=O)[O-])cc1)c1ccc(Cl)cc1 , is the recorded TGI at or above 20 µM?
Reply: 1
